Entries and their % of control remaining values follow.
target: human pancreatic lipase (hPL) (Homo sapiens); construct: gene PNLIP; conditions: 10 µM; inhibitor
measure name: % of control remaining (%)

>  <compound>
Oc1ccc2c(c1)OCO2 [Sesamol]

>  <measure name>
% of control remaining

>  <reported value>
103.95

$$$$
>  <compound>
C[C@]12CCC(=O)C=C1CC[C@@H]1[C@@H]2[C@@H](O)C[C@@]2(C)[C@H]1CC[C@]2(O)C(=O)CO [Hydrocortisone]

>  <measure name>
% of control remaining

>  <reported value>
56.27

$$$$
>  <compound>
CC#CCn1c(N2CCC[C@@H](N)C2)nc2c1c(=O)n(Cc1nc(C)c3ccccc3n1)c(=O)n2C [Linagliptin]

>  <measure name>
% of control remaining

>  <reported value>
108.93

$$$$
>  <compound>
Cc1ncc([N+](=O)[O-])n1CCO [Metronidazole]

>  <measure name>
% of control remaining

>  <reported value>
78.49

$$$$
>  <compound>
C#C[C@]1(O)CC[C@H]2[C@@H]3CCC4=CC(=O)CCC4=C3C=C[C@@]21CC [Gestrinone]

>  <measure name>
% of control remaining

>  <reported value>
66.72

$$$$

###

target: human pancreatic lipase (hPL) (Homo sapiens); construct: gene PNLIP; settings: 10 µM; inhibitor
Counter-ions that a name gives are not always drawn.
measure name: % of control remaining (%)

>  <compound>
CC(C)CCC[C@@H](C)[C@H]1CC[C@H]2[C@@H]3CCC4=CC(=O)CC[C@]4(C)[C@H]3CC[C@]12C

>  <measure name>
% of control remaining

>  <measurement units>
%

>  <reported value>
77.59

$$$$
>  <compound>
NS(=O)(=O)c1cc2c(cc1Cl)NCNS2(=O)=O [Hydrochlorothiazide]

>  <measure name>
% of control remaining

>  <measurement units>
%

>  <reported value>
99.42

$$$$
>  <compound>
COC(=O)[C@H](c1ccccc1Cl)N1CCc2sccc2C1 [Clopidogrel sulfate]

>  <measure name>
% of control remaining

>  <measurement units>
%

>  <reported value>
90.49

$$$$
>  <compound>
CCC(=O)O[C@H]1CC[C@H]2[C@@H]3CCC4=CC(=O)CC[C@]4(C)[C@H]3CC[C@]12C [Testosterone propionate]

>  <measure name>
% of control remaining

>  <measurement units>
%

>  <reported value>
65.37

$$$$
>  <compound>
COc1ccc(-c2coc3cc(O[C@@H]4O[C@H](CO)[C@@H](O)[C@H](O)[C@H]4O)ccc3c2=O)cc1O [Calycosin 7-O-glucoside]

>  <measure name>
% of control remaining

>  <measurement units>
%

>  <reported value>
84.02

$$$$
>  <compound>
CCCCC1OC(=O)C2=C1CCC=C2 (centres unmarked) [3-N-butyl-4,5-dihydrophthalide]

>  <measure name>
% of control remaining

>  <measurement units>
%

>  <reported value>
75.65

$$$$
>  <compound>
COc1cc(O)c(CC=C(C)C)c(O)c1C(=O)/C=C/c1ccc(O)cc1

>  <measure name>
% of control remaining

>  <measurement units>
%

>  <reported value>
81.19

$$$$
>  <compound>
COc1ccc(CCC(=O)c2ccc(O)cc2)c(OC)c1

>  <measure name>
% of control remaining

>  <measurement units>
%

>  <reported value>
67.52

$$$$

###

Target: human pancreatic lipase (hPL) (Homo sapiens)
Construct: gene PNLIP
Sequence (P16233 17-465): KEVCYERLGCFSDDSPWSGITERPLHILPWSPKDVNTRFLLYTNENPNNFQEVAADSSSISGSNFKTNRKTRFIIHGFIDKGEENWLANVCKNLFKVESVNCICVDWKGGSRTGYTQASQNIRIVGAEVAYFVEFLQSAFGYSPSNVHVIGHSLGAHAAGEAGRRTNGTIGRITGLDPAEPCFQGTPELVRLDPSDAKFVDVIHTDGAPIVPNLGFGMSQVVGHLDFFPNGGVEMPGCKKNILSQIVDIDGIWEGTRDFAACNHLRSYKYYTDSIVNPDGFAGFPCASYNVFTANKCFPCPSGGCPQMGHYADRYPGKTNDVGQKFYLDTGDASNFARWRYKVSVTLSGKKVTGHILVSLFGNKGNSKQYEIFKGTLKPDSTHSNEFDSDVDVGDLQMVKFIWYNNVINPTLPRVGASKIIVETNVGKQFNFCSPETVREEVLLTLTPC
Details: 10 µM; inhibitor
Entries and their % of control remaining values follow.
measure name: % of control remaining (%)

>  <compound>
Oc1cc(O)c2c(c1)OC(c1ccc(O)c(O)c1)C(OC1(c3ccc(O)c(O)c3)Oc3cc(O)cc(O)c3C(O)C1O)C2 (stereo not shown) [Procyanidin]

>  <target>
human pancreatic lipase (hPL) (Homo sapiens)

>  <measure name>
% of control remaining

>  <measurement units>
%

>  <reported value>
5.72

$$$$
>  <compound>
COc1ccc(-c2oc3c(CC=C(C)C)c(O[C@@H]4O[C@H](CO)[C@@H](O)[C@H](O)[C@H]4O)cc(O)c3c(=O)c2O[C@@H]2O[C@@H](C)[C@H](O)[C@@H](O)[C@H]2O[C@@H]2O[C@@H](C)[C@H](O)[C@@H](O)[C@H]2O)cc1 [Epmedin C]

>  <target>
human pancreatic lipase (hPL) (Homo sapiens)

>  <measure name>
% of control remaining

>  <measurement units>
%

>  <reported value>
81.94

$$$$
>  <compound>
CCC1=C(C)CN(C(=O)NCCc2ccc(S(=O)(=O)NC(=O)N[C@H]3CC[C@H](C)CC3)cc2)C1=O [Glimepiride]

>  <target>
human pancreatic lipase (hPL) (Homo sapiens)

>  <measure name>
% of control remaining

>  <measurement units>
%

>  <reported value>
90.05

$$$$
>  <compound>
C[C@]12C=CC(=O)C=C1CC[C@@H]1[C@@H]2[C@@H](O)C[C@@]2(C)[C@H]1CC[C@]2(O)C(=O)CO [Prednisolone]

>  <target>
human pancreatic lipase (hPL) (Homo sapiens)

>  <measure name>
% of control remaining

>  <measurement units>
%

>  <reported value>
82.34

$$$$

###

Molecular target: human pancreatic lipase (hPL) (Homo sapiens, UniProt P16233)
Construct: gene PNLIP
Conditions: 10 µM; inhibitor
Procedure: First, we evaluated the inhibitory effect of 94 natural products derived from herbs and 94 drugs on hPL. In our high-throughput screening system, 1 ug/mL hPL was used, and the final concentration of the 94 natural products derived from herbs and 94 drugs used was 10 μM. […] The reaction was initiated by adding RLE to the preincubated enzyme mixture at 37 °C, and metabolite formation was determined by measuring the fluorescence intensity of resorufin at 590 nm. […]
measure name: % of control remaining

>  <compound>
O=C1C[C@@H](c2ccc(O[C@@H]3O[C@H](CO)[C@@H](O)[C@H](O)[C@H]3O)cc2)Oc2cc(O)ccc21

>  <reported value>
105.77%

$$$$
>  <compound>
COc1c(O)c(O)cc2oc(-c3ccc(O)c(O)c3)c(O)c(=O)c12

>  <reported value>
59.87%

$$$$
>  <compound>
COc1cc(/C=C/C(=O)CC(=O)/C=C/c2ccc(O)c(OC)c2)ccc1O

>  <reported value>
75.83%

$$$$
>  <compound>
C[C@@H]1C(=O)O[C@H]2C[C@@]34[C@H]5C[C@@H](C(C)(C)C)[C@]36[C@@H](OC(=O)[C@@H]6O)O[C@@]4(C(=O)O5)[C@]21O [Ginkgolide A]

>  <reported value>
125.97%

$$$$
>  <compound>
COc1c2occc2cc2ccc(=O)oc12

>  <reported value>
90.65%

$$$$
>  <compound>
C=C1C(=O)O[C@@H]2C[C@@]3(C)CCCC(=C)[C@@H]3C[C@H]12

>  <reported value>
70.02%

$$$$
>  <compound>
Cc1cc(NS(=O)(=O)c2ccc(N)cc2)no1

>  <reported value>
98.83%

$$$$
>  <compound>
COc1ccc(-c2cc(=O)c3c(OC)c(OC)c(OC)c(OC)c3o2)cc1OC

>  <reported value>
80.44%

$$$$

###

Molecular target: human pancreatic lipase (hPL) (Homo sapiens)
Construct: gene PNLIP
Conditions: 10 µM; inhibitor
Experimental: First, we evaluated the inhibitory effect of 94 natural products derived from herbs and 94 drugs on hPL. In our high-throughput screening system, 1 ug/mL hPL was used, and the final concentration of the 94 natural products derived from herbs and 94 drugs used was 10 μM. […] The reaction was initiated by adding RLE to the preincubated enzyme mixture at 37 °C, and metabolite formation was determined by measuring the fluorescence intensity of resorufin at 590 nm. […]
Where a name gives a salt, the structure may show the parent alone.
Entries and their % of control remaining values follow.

>  <compound>
C=C[C@H]1CN2CC[C@H]1C[C@@H]2[C@@H](O)c1ccnc2ccc(OC)cc12

>  <target>
human pancreatic lipase (hPL) (Homo sapiens)

>  <% of control remaining / %>
100.77

$$$$
>  <compound>
O=c1c(O[C@@H]2O[C@H](CO)[C@@H](O)[C@H](O)[C@H]2O)c(-c2ccc(O)cc2)oc2cc(O)cc(O)c12

>  <target>
human pancreatic lipase (hPL) (Homo sapiens)

>  <% of control remaining / %>
107.88

$$$$
>  <compound>
COc1cc2c(cc1OC)-c1cc3ccc(OC)c(OC)c3c[n+]1CC2 [Palmatine chloride]

>  <target>
human pancreatic lipase (hPL) (Homo sapiens)

>  <% of control remaining / %>
87.01

$$$$
>  <compound>
CN(C)CCOC(c1ccccc1)c1ccccc1 [Diphenhydramine Hydrochloride]

>  <target>
human pancreatic lipase (hPL) (Homo sapiens)

>  <% of control remaining / %>
88.58

$$$$
>  <compound>
C[C@H]1O[C@@H](O[C@H]2[C@@H](O)C[C@H](O[C@H]3[C@@H](O)C[C@H](O[C@H]4CC[C@@]5(C)[C@H](CC[C@@H]6[C@@H]5C[C@@H](O)[C@]5(C)[C@@H](C7=CC(=O)OC7)CC[C@]65O)C4)O[C@@H]3C)O[C@@H]2C)C[C@H](O)[C@@H]1O

>  <target>
human pancreatic lipase (hPL) (Homo sapiens)

>  <% of control remaining / %>
99.51

$$$$
>  <compound>
O=C(/C=C/c1ccccc1)OCc1ccccc1 [Benzyl cinnamate]

>  <target>
human pancreatic lipase (hPL) (Homo sapiens)

>  <% of control remaining / %>
74.62

$$$$
>  <compound>
CC(C)=CCOc1c2ccoc2cc2oc(=O)ccc12

>  <target>
human pancreatic lipase (hPL) (Homo sapiens)

>  <% of control remaining / %>
72.90

$$$$
